Listed here: items and their measured logD.
Experiment: Determination of partition coefficients between n-octanol and water
Assay type: physicochemical
Conditions: pH=7.4, logarithm to base 10
Description: The coefficients of partition between n-octanol and water were determined at pH=7.4 by conventional techniques and are expressed as logarithms to base 10 (Log P).
Answer with a bare number; do not write a unit.

>>> reported_value("O=C(NC1CCCCCCC1)NS(=O)(=O)c1cnccc1NC1CCCCC1")
2.07
>>> reported_value("O=C(NC1CCCCC1)NS(=O)(=O)c1cnccc1NC1CCCCCCC1")
2.06

According to the records, this molecule O=C(NC1CCCCCC1)NS(=O)(=O)c1cnccc1NC1CCCCCCC1 displays logD of 2.45

According to the records, this molecule O=C(NC1CCCCC1)NS(=O)(=O)c1cnccc1NC1CCCCC1 displays logD of 1.33

---

Listed here: items and their measured pKa.
Test: Determination of pKa (proton acidity constant of SO2-NH-CO-)
Assay type: physicochemical
Answer with a bare number; do not write a unit.

>>> reported_value("O=C(NC1CCCCC1)NS(=O)(=O)c1cnccc1NC1CCCCCC1")
9.39

According to the records, this compound O=C(NC1CCCCCC1)NS(=O)(=O)c1cnccc1NC1CCCCCCC1 displays pKa of 9.15

According to the records, this compound O=C(NC1CCCCCCC1)NS(=O)(=O)c1cnccc1NC1CCCCCCC1 displays pKa of 7.74

According to the records, this compound Cc1cccc(Nc2ccncc2S(=O)(=O)NC(=O)NC(C)C)c1 [Torasemide, reference compound] displays pKa of 6.82

According to the records, this compound O=C(NC1CCCCC1)NS(=O)(=O)c1cnccc1NC1CCCCC1 displays pKa of 9.02

According to the records, this compound O=C(NC1CCCCC1)NS(=O)(=O)c1cnccc1NC1CCCCCCC1 displays pKa of 8.95

According to the records, this compound O=C(NC1CCCCCCC1)NS(=O)(=O)c1cnccc1NC1CCCCC1 displays pKa of 9.13

---

Assay: Determination of partition coefficients between n-octanol and water
Format: physicochemical
Settings: pH=7.4, logarithm to base 10
Listed here: items and their measured logD.
Answer with a bare number; do not write a unit.

Some solved cases for reference:
>>> reported_value("O=C(NC1CCCCC1)NS(=O)(=O)c1cnccc1NC1CCCCCC1")
1.67
>>> reported_value("O=C(NC1CCCCCCC1)NS(=O)(=O)c1cnccc1NC1CCCCCCC1")
2.7

According to the records, this compound Cc1cccc(Nc2ccncc2S(=O)(=O)NC(=O)NC(C)C)c1 [Torasemide, reference compound] displays logD of 0.449
